Source of measurements: PubChem BioAssay (EPA / NIEHS)

# protocol details: IUF_NPC2-5_cytotoxicity_120hr: Cytotoxicity Assessment at 120 hours in the Leibniz Research Institute for Environmental Medicine (IUF) Neural Progenitor Cell Migration and Differentiation Assay (NPC2-5) (AID 2284307)
Activity calls are given as the source filed them. Rule for the calls: active = hit-call score of the fitted dose curve at least 0.9, where 1 is the maximum; inconclusive = response in the unintended direction; inactive = score below 0.9.
Outcome codes: yes = active, no = inactive

compound: CO/N=C(/C1=NOCCO1)c1ccccc1Oc1ncnc(Oc2ccccc2Cl)c1F
label: no

compound: Cc1c(COC(=O)[C@@H]2[C@H](/C=C(\Cl)C(F)(F)F)C2(C)C)cccc1-c1ccccc1
label: no

compound: CNC(=O)Oc1cccc2ccccc12
label: no

compound: CS(=O)(=O)c1cc(C(F)(F)F)ccc1C(=O)c1cnoc1C1CC1
label: no

compound: COP(=S)(OC)SCn1nnc2ccccc2c1=O
label: no

compound: CCOP(=O)(OCC)Oc1nc(Cl)c(Cl)cc1Cl
label: yes

compound: CC1(C)C(C=C(Cl)Cl)C1C(=O)OC(C#N)c1cccc(Oc2ccccc2)c1 (centres undefined)
label: no

compound: O=C(Nc1ccccc1-c1ccc(Cl)cc1)c1cccnc1Cl
label: no

compound: CN/C(=N\[N+](=O)[O-])NCc1cnc(Cl)s1
label: no
